Catalogue of half-life at 0.5 μM readings, one per entry.
# procedure_text: Metabolic stability in human liver microsomes (in vitro t1/2)
# Type: in vitro ADME
# protocol_conditions: pooled human liver microsomes, pooled human liver microsomes 3.0 mg/mL, test compound 0.5 μM, NADPH, 37° C., Experiment No. 2, read-out: t½ (min), Experiment No. 2
// return numeric value only (unit: min, not printed)

[2H]C([2H])([2H])Oc1cc2ncnc(Nc3ccc(F)c(Cl)c3)c2cc1OCCCN1CCOCC1 [Compound 104]    20.8
COc1cc2ncnc(Nc3ccc(F)c(Cl)c3)c2cc1OCCCN1CCOCC1 [Gefitinib]    17.6
[2H]C([2H])([2H])Oc1cc2ncnc(Nc3ccc(F)c(Cl)c3)c2cc1OC([2H])([2H])C([2H])([2H])C([2H])([2H])N1CCOCC1 [Compound 102]    20.8

Notebook: [2H]C([2H])([2H])Oc1cc2ncnc(Nc3ccc(F)c(Cl)c3)c2cc1OC([2H])([2H])C([2H])([2H])C([2H])([2H])N1C([2H])([2H])C([2H])([2H])OC([2H])([2H])C1([2H])[2H] [Compound 101] , half-life at 0.5 μM read as 23.8

---

Catalogue of half-life at 0.5 μM readings, one per entry.
# procedure_text: Metabolic stability in human liver microsomes (in vitro t1/2)
# Format: in vitro ADME
# protocol_conditions: pooled human liver microsomes, pooled human liver microsomes 3.0 mg/mL, test compound 0.5 μM, NADPH, 37° C., Experiment No. 1, read-out: t½ (min), Experiment No. 1
The reply should read as a number followed by its unit.

Notebook: "COc1cc2ncnc(Nc3ccc(F)c(Cl)c3)c2cc1OCCCN1CCOCC1" , half-life at 0.5 μM read as 19.4 min

---

# procedure_text: Metabolic stability in human liver microsomes (in vitro t1/2)
# Type: in vitro ADME
# protocol_conditions: pooled human liver microsomes, pooled human liver microsomes 3.0 mg/mL, test compound 0.5 μM, NADPH, 37° C., Experiment No. 3, read-out: t½ (min), Experiment No. 3
Catalogue of half-life at 0.5 μM readings, one per entry.
The reply should read as a number followed by its unit.

Below: 3 molecules and their reported half-life at 0.5 μM.
COc1cc2ncnc(Nc3ccc(F)c(Cl)c3)c2cc1OCCCN1CCOCC1    19.8 min
[2H]C([2H])([2H])Oc1cc2ncnc(Nc3ccc(F)c(Cl)c3)c2cc1OCCCN1CCOCC1    21.8 min
[2H]C([2H])([2H])Oc1cc2ncnc(Nc3ccc(F)c(Cl)c3)c2cc1OC([2H])([2H])C([2H])([2H])C([2H])([2H])N1C([2H])([2H])C([2H])([2H])OC([2H])([2H])C1([2H])[2H]    23.1 min

Notebook: "[2H]C([2H])([2H])Oc1cc2ncnc(Nc3ccc(F)c(Cl)c3)c2cc1OC([2H])([2H])C([2H])([2H])C([2H])([2H])N1CCOCC1" , half-life at 0.5 μM read as 21.8 min

---

Catalogue of half-life at 0.5 μM readings, one per entry.
# procedure_text: Metabolic stability in human liver microsomes (in vitro t1/2)
# Assay type: in vitro ADME
# protocol_conditions: pooled human liver microsomes, pooled human liver microsomes 3.0 mg/mL, test compound 0.5 μM, NADPH, 37° C., average of experiments 1-3, read-out: t½ (min), Ave
// return numeric value only (unit: min, not printed)

Below: 3 molecules and their reported half-life at 0.5 μM.
[2H]C([2H])([2H])Oc1cc2ncnc(Nc3ccc(F)c(Cl)c3)c2cc1OC([2H])([2H])C([2H])([2H])C([2H])([2H])N1C([2H])([2H])C([2H])([2H])OC([2H])([2H])C1([2H])[2H]    23.7
[2H]C([2H])([2H])Oc1cc2ncnc(Nc3ccc(F)c(Cl)c3)c2cc1OCCCN1CCOCC1    21.7
[2H]C([2H])([2H])Oc1cc2ncnc(Nc3ccc(F)c(Cl)c3)c2cc1OC([2H])([2H])C([2H])([2H])C([2H])([2H])N1CCOCC1    21.7

Please turn your attention to the following entry.
Notebook: "COc1cc2ncnc(Nc3ccc(F)c(Cl)c3)c2cc1OCCCN1CCOCC1" , half-life at 0.5 μM read as 18.9

---

# procedure_text: Metabolic stability in human liver microsomes (in vitro t1/2)
# Type: in vitro ADME
# protocol_conditions: pooled human liver microsomes, pooled human liver microsomes 3.0 mg/mL, test compound 0.5 μM, NADPH, 37° C., Experiment No. 1, read-out: t½ (min), Experiment No. 1
Catalogue of half-life at 0.5 μM readings, one per entry.
// return numeric value only (unit: min, not printed)

Below: 2 molecules and their reported half-life at 0.5 μM.
[2H]C([2H])([2H])Oc1cc2ncnc(Nc3ccc(F)c(Cl)c3)c2cc1OC([2H])([2H])C([2H])([2H])C([2H])([2H])N1C([2H])([2H])C([2H])([2H])OC([2H])([2H])C1([2H])[2H]    24.3
[2H]C([2H])([2H])Oc1cc2ncnc(Nc3ccc(F)c(Cl)c3)c2cc1OC([2H])([2H])C([2H])([2H])C([2H])([2H])N1CCOCC1    22.5

Please turn your attention to the following entry.
Notebook: "[2H]C([2H])([2H])Oc1cc2ncnc(Nc3ccc(F)c(Cl)c3)c2cc1OCCCN1CCOCC1" , half-life at 0.5 μM read as 22.5

Reference for the values: patent US9133137B2
